All values here come from paper PMC10233092.

Molecular target: JAK3 (Homo sapiens)
Sequence (P52333 1-1124): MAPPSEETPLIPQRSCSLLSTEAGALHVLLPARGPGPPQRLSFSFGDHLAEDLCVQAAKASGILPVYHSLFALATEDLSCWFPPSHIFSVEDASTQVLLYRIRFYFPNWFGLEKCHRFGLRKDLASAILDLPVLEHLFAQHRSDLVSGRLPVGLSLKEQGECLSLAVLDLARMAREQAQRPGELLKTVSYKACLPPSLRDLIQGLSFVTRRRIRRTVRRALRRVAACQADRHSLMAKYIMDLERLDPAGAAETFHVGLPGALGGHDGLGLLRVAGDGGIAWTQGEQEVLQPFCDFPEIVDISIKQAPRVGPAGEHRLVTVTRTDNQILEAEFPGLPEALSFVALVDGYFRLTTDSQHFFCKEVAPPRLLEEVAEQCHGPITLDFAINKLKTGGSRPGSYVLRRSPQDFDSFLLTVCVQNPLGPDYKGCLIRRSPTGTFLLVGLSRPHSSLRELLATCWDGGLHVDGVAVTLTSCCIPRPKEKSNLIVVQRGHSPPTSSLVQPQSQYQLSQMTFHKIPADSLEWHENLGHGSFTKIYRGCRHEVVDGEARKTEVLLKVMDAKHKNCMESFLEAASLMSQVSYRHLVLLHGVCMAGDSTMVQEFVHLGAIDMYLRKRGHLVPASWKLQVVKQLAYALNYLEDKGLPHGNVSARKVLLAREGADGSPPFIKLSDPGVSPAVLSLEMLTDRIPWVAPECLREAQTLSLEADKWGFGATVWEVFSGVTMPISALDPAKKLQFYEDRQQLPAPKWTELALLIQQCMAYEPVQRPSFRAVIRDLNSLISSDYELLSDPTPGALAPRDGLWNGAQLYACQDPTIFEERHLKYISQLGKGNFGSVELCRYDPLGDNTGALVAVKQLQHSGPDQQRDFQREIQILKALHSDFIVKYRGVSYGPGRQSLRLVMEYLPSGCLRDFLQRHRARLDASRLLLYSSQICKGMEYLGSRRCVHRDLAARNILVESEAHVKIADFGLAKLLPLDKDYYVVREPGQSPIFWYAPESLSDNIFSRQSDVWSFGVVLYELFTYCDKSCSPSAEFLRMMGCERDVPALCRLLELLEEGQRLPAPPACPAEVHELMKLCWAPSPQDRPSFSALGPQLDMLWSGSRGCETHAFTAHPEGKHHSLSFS
Experiment: JAK3 kinase inhibition, Calliper assay
Type: biochemical
Conditions: physiological ATP concentration of 5 mM
experimentalEndpoint: IC50

Input: Data request, read-out IC50, for Cc1cnc(Nc2cccnc2F)nc1-c1c[nH]c2c(NC(=O)[C@@H](C)N3CCN(C)CC3)cccc12
Output: > 30 µM

* * *

Tested on: IL‐13, STAT6‐Luc
Experiment: IL-13-induced JAK-STAT6-luciferase assay in U937 monocytes
Assay type: cell-based
Settings: Homo sapiens, U-937, interleukin at EC80
experimentalEndpoint: pIC50
Scale note: pIC50 = -log10(concentration in M).

Some compounds with recorded pIC50:
{"compound": "N#CC[C@H](C1CCCC1)n1cc(-c2ncnc3[nH]ccc23)cn1 [Ruxolitinib, reference compound]", "experimentalEndpoint": "pIC50", "recordedNumber": 7.09}
{"compound": "Cc1cnc(Nc2cc(N3C[C@@H]4C[C@H]3CN4C)cnc2F)nc1N[C@H](C)[C@H](C)CO [Cmpd B]", "experimentalEndpoint": "pIC50", "recordedNumber": 7.00}

Next item in the queue.
Input: Data request, read-out pIC50, for Cc1cnc(Nc2cccnc2F)nc1-c1c[nH]c2c(NC(=O)[C@@H](C)N3CCN(C)CC3)cccc12 [Cmpd A]
Output: 6.92

* * *

Reported clearance values for a set of compounds
Assay: Mouse pharmacokinetics i.v./p.o.
Type: in vivo
Conditions: plasma, iv, male C57Bl6 mice, i.v. 0.5-1.0 mg/kg
Record the value in mL/min/kg, omitting the unit from your answer.

Input: Data request, read-out clearance, for COCC(C(=O)Nc1cccc2c(-c3nc(Nc4cccc(S(C)(=O)=O)c4F)ncc3F)c[nH]c12)N1CCN(C)CC1 (stereo not drawn)
Output: 26

Input: Data request, read-out clearance, for Cc1cnc(Nc2cccnc2F)nc1-c1c[nH]c2c(NC(=O)[C@@H](C)N3CCN(C)CC3)cccc12
Output: 32

Input: Data request, read-out clearance, for Cc1cnc(Nc2cc(N3C[C@@H]4C[C@H]3CN4C)cnc2F)nc1N[C@H](C)[C@H](C)CO
Output: 38

* * *

Tested on: IL‐4, STAT6‐Luc
Experiment: IL-4-induced JAK-STAT6-luciferase assay in U937 monocytes
Format: cell-based
Conditions: Homo sapiens, U-937, interleukin at EC80
Reported IC50 values for a set of compounds
Give your result as the value with the unit written after it.

{"compound": "N#CC[C@H](C1CCCC1)n1cc(-c2ncnc3[nH]ccc23)cn1 [Ruxolitinib, reference compound]", "result": "110 nM"}

Input: Data request, read-out IC50, for Cc1cnc(Nc2cccnc2F)nc1-c1c[nH]c2c(NC(=O)[C@@H](C)N3CCN(C)CC3)cccc12
Output: 84 nM

Input: Data request, read-out IC50, for COCC(C(=O)Nc1cccc2c(-c3nc(Nc4cccc(S(C)(=O)=O)c4F)ncc3F)c[nH]c12)N1CCN(C)CC1 (stereo not shown)
Output: 24 nM

Input: Data request, read-out IC50, for Cc1cnc(Nc2cc(N3C[C@@H]4C[C@H]3CN4C)cnc2F)nc1N[C@H](C)[C@H](C)CO
Output: 110 nM

* * *

Assay: Solubility in phosphate buffer
Assay type: physicochemical
Conditions: pH 7.4, aqueous buffer
Description: TABLE 1 In vitro potency and selectivity of JAK inhibitors | column: Solubility (μM) ^c
experimentalEndpoint: solubility

{"molecule": "Cc1cnc(Nc2cccnc2F)nc1-c1c[nH]c2c(NC(=O)[C@@H](C)N3CCN(C)CC3)cccc12 [Cmpd A]", "solubility": "> 337 µM"}
{"molecule": "Cc1cnc(Nc2cc(N3C[C@@H]4C[C@H]3CN4C)cnc2F)nc1N[C@H](C)[C@H](C)CO [Cmpd B]", "solubility": "> 955 µM"}
{"molecule": "C[C@@H]1CCN(C(=O)CC#N)C[C@@H]1N(C)c1ncnc2[nH]ccc12 [Tofacitinib, reference compound]", "solubility": "> 1000 µM"}
{"molecule": "N#CC[C@H](C1CCCC1)n1cc(-c2ncnc3[nH]ccc23)cn1 [Ruxolitinib, reference compound]", "solubility": "678 µM"}

Next item in the queue.
Input: Data request, read-out solubility, for COCC(C(=O)Nc1cccc2c(-c3nc(Nc4cccc(S(C)(=O)=O)c4F)ncc3F)c[nH]c12)N1CCN(C)CC1 (centres unmarked) [Cmpd C]
Output: 6.6 µM

* * *

Molecular target: JAK1 (Homo sapiens, UniProt P23458)
Sequence (P23458 whole entry, species assumed): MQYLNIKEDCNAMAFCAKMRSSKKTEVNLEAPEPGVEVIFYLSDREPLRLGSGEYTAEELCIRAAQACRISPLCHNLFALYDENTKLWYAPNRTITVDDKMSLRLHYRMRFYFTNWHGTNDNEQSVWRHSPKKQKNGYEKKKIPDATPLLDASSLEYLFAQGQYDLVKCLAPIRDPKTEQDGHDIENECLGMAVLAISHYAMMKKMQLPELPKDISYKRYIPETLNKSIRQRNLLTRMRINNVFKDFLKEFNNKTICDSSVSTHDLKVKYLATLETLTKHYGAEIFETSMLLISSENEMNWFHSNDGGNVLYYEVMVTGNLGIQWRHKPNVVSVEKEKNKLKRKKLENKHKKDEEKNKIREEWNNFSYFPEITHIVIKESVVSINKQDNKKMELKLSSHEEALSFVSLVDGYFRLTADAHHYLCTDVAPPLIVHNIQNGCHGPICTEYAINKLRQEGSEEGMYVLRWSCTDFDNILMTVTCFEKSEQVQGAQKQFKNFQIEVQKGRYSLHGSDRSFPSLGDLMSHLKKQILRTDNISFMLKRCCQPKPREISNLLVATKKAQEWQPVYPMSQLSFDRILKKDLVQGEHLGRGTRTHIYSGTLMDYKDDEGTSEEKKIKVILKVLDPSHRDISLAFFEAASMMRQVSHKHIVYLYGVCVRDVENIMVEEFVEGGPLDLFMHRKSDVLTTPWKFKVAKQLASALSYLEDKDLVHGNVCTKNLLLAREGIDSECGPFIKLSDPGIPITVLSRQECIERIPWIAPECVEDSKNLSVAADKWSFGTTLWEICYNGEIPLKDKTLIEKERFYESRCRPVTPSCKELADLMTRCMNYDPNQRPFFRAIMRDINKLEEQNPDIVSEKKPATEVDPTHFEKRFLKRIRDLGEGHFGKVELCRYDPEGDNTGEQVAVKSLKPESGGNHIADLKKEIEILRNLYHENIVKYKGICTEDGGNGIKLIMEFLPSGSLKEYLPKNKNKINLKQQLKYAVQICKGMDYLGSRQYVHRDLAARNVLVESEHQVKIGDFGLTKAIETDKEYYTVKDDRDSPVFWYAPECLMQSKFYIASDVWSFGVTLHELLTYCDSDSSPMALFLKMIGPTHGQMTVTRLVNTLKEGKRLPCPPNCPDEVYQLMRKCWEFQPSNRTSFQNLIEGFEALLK
experimentalEndpoint: pIC50
Scale note: pIC50 = -log10(concentration in M).

Input: Can you look up pIC50 on JAK1 (Homo sapiens, UniProt P23458) for Cc1cnc(Nc2cc(N3C[C@@H]4C[C@H]3CN4C)cnc2F)nc1N[C@H](C)[C@H](C)CO ?
Output: 8.03

* * *

Test: Basic pKa
Format: physicochemical
Settings: read-out: Basic pKa's
Reported pKa values for a set of molecules

Input: Data request, read-out pKa, for COCC(C(=O)Nc1cccc2c(-c3nc(Nc4cccc(S(C)(=O)=O)c4F)ncc3F)c[nH]c12)N1CCN(C)CC1 (stereo not drawn)
Output: 7.9

Input: Data request, read-out pKa, for Cc1cnc(Nc2cccnc2F)nc1-c1c[nH]c2c(NC(=O)[C@@H](C)N3CCN(C)CC3)cccc12
Output: 7.9

Input: Data request, read-out pKa, for Cc1cnc(Nc2cc(N3C[C@@H]4C[C@H]3CN4C)cnc2F)nc1N[C@H](C)[C@H](C)CO
Output: 8.6
